Test system: Beet Armyworm
Experiment: Mite/insect screen, Beet Armyworm (BAW)
Type: in vivo, Spodoptera exiqua
Conditions: Spodoptera exigua, 144 h, 50 ppm, 6 day, mean of single replicate tests
MEASURED PROPERTY: inhibition at 50 ppm (%)
Write down the numeric answer in % and omit the unit.

Task item: Request the reported inhibition at 50 ppm associated with CC[C@H]1CCC[C@H](O[C@H]2CC[C@H](N(C)C)[C@@H](C)O2)[C@@H](C)C(=O)C2=C[C@@H]3[C@@H](C=C(C)[C@@H]4C[C@@H](O[C@@H]5O[C@@H](C)[C@H](OC)[C@@H](OC)[C@H]5O)C[C@@H]34)[C@@H]2CC(=O)O1 [A83543Q]
Reply: 100

Task item: Request the reported inhibition at 50 ppm associated with CC[C@H]1CCC[C@H](O[C@H]2CC[C@H](NC)[C@@H](C)O2)[C@@H](C)C(=O)C2=C[C@@H]3[C@@H](C=C[C@@H]4C[C@@H](O[C@@H]5O[C@@H](C)[C@H](OC)[C@@H](OC)[C@H]5O)C[C@@H]34)[C@@H]2CC(=O)O1 [A83543R]
Reply: 0

Task item: Request the reported inhibition at 50 ppm associated with CO[C@@H]1[C@@H](OC)[C@@H](O)[C@H](O[C@H]2C[C@H]3[C@@H]4C=C5C(=O)[C@H](C)[C@@H](O[C@H]6CC[C@H](N(C)C)[C@@H](C)O6)CCC[C@H](C)OC(=O)C[C@H]5[C@@H]4C=C[C@@H]3C2)O[C@H]1C [A83543S]
Reply: 100

Task item: Request the reported inhibition at 50 ppm associated with CC[C@H]1CCC[C@H](O[C@H]2CC[C@H](N(C)C)[C@@H](C)O2)[C@@H](C)C(=O)C2=C[C@@H]3[C@@H](C=C[C@@H]4C[C@@H](O[C@@H]5O[C@@H](C)[C@H](OC)[C@@H](O)[C@H]5O)C[C@@H]34)[C@@H]2CC(=O)O1 [A83543T]
Reply: 0

---

Tested on: Aster Leafhopper
Assay: Mite/insect screen, Aster Leafhopper (ALH)
Type: in vivo
Details: Macrosteles fascifrons, 400 ppm, 24 hr, mean of single replicate tests
For each of the molecules below, state its inhibition at 400 ppm.

Task item: So what inhibition at 400 ppm did CC[C@H]1CCC[C@H](O[C@H]2CC[C@H](N(C)C)[C@@H](C)O2)[C@@H](C)C(=O)C2=C[C@@H]3[C@@H](C=C(C)[C@@H]4C[C@@H](O[C@@H]5O[C@@H](C)[C@H](OC)[C@@H](OC)[C@H]5O)C[C@@H]34)[C@@H]2CC(=O)O1 [A83543Q] get with Aster Leafhopper?
Reply: 100%

Task item: So what inhibition at 400 ppm did CC[C@H]1CCC[C@H](O[C@H]2CC[C@H](NC)[C@@H](C)O2)[C@@H](C)C(=O)C2=C[C@@H]3[C@@H](C=C[C@@H]4C[C@@H](O[C@@H]5O[C@@H](C)[C@H](OC)[C@@H](OC)[C@H]5O)C[C@@H]34)[C@@H]2CC(=O)O1 [A83543R] get with Aster Leafhopper?
Reply: 0%

Task item: So what inhibition at 400 ppm did CC[C@H]1CCC[C@H](O[C@H]2CC[C@H](N(C)C)[C@@H](C)O2)[C@@H](C)C(=O)C2=C[C@@H]3[C@@H](C=C[C@@H]4C[C@@H](O[C@@H]5O[C@@H](C)[C@H](OC)[C@@H](O)[C@H]5O)C[C@@H]34)[C@@H]2CC(=O)O1 [A83543T] get with Aster Leafhopper?
Reply: 100%

Task item: So what inhibition at 400 ppm did CO[C@@H]1[C@@H](OC)[C@@H](O)[C@H](O[C@H]2C[C@H]3[C@@H]4C=C5C(=O)[C@H](C)[C@@H](O[C@H]6CC[C@H](N(C)C)[C@@H](C)O6)CCC[C@H](C)OC(=O)C[C@H]5[C@@H]4C=C[C@@H]3C2)O[C@H]1C [A83543S] get with Aster Leafhopper?
Reply: 100%
